System: Human mast cells (CHMC)
Assay: LD Tryptase release assay in CHMC (mast cell activation induced by FcγR cross-linking)
Format: cell-based
Details: Homo sapiens, Mast cell, anti-IgG stimulation, activity of tryptase released upon degranulation
Entries and their IC50 values follow.

compound	value kind	data value
[2H]C1([2H])OC([2H])([2H])C([2H])([2H])N(c2ccc(Nc3ncc(F)c(Nc4ccc5c(n4)NC(=O)C(C)(C)O5)n3)cc2)C1([2H])[2H] [Compound 131]	IC50	< 100 nM
Cc1cc(Nc2ncc(F)c(Nc3ccc4c(n3)NC(=O)C(C)(C)O4)n2)ccc1N1CCOCC1 [Compound 23]	IC50	< 100 nM
CC1(C)Oc2ccc(Nc3nc(Nc4cnc(N5CCOCC5)c(F)c4)ncc3F)nc2NC1=O [Compound 10]	IC50	100 to 500 nM
CC1(C)Oc2ccc(Nc3nc(Nc4ccc(N5CCC(N6CCOCC6)CC5)cc4)ncc3F)nc2NC1=O [Compound 87]	IC50	100 to 500 nM
COCCN(C)c1ccc(Nc2ncc(F)c(Nc3ccc4c(n3)NC(=O)CO4)n2)cn1 [Compound 98]	IC50	500 to 1000 nM
Cc1cc(Nc2ncc(F)c(Nc3ccc4c(n3)NC(=O)C(C)(C)O4)n2)ccc1N1CCC2(CCOC2)CC1 [Compound 159]	IC50	500 to 1000 nM

Let us examine a further case.
State the recorded IC50 for this entry: CC1(C)Oc2ccc(Nc3nc(Nc4ccc(N5CCN6CCC5CC6)nc4)ncc3F)nc2NC1=O [Compound 62]
500 to 1000 nM
